The reported numbers originate from paper PMC5540273.

Answer each item with its documented %Inh.
test system: CAMK1G; details: concentration: 1 μM, replicates: in singlicate; n = 1;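 note: KINOMEscan kinase panel screen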
Give the value, in units of %, as a plain number.

What %Inh value was documented for this compound, CN1CCN(CCCNc2nccc(-c3c(-c4ccc(F)cc4)nn4cc(C(F)(F)F)ccc34)n2)CC1 ? 0

What %Inh value was documented for this compound, O=C(Nc1n[nH]c2nc(-c3ccc(O)cc3)ccc12)C1CC1 ? 4

What %Inh value was documented for this compound, COC(=O)Nc1nc2ccc(Oc3ccc(NC(=O)Nc4cc(C(F)(F)F)ccc4F)cc3)cc2n1C.Cl ? 0

What %Inh value was documented for this compound, O=C(O)C(F)(F)F.O=C(O)C(F)(F)F.O=c1[nH]ccc2nc(N[C@@H]3CCCNC3)nc(Nc3ccc(S(=O)(=O)N4CCOCC4)cc3)c12 ? 74

What %Inh value was documented for this compound, Fc1ccc(-c2ncn(C3CCNCC3)c2-c2ccnc(Oc3ccc(-c4ccccc4)cc3)n2)cc1 ? 4

What %Inh value was documented for this compound, Cc1ccc(S(=O)(=O)Nc2ccc(Nc3nccc(Nc4cccc5[nH]ncc45)n3)cc2)cc1 ? 0

What %Inh value was documented for this compound, CC(C)(C)c1ccc2nccc(Nc3cccc(O)c3)c2c1 ? 0

What %Inh value was documented for this compound, O=C(Nc1cccc(Oc2ccc3nc(NC(=O)C4CC4)cn3n2)c1)c1ccccc1C(F)(F)F ? 0
